method-description: decreased DLD-1 cellular survival, CellTiter-Glo luminescent readout, NPC compound collection, primary HTS (AID 1117346)
test-context: DLD-1 viability, CellTiter-Glo luminescence; at 20 µM (top of the series)
endpoint: viability decrease (inhibition) (%)
Numbers only, in %.

[
  {
    "compound": "Oc1ccc(C(O)CNCCCCCCNCC(O)c2ccc(O)c(O)c2)cc1O (stereo unspecified)",
    "viability decrease (inhibition) / %": 40.4
  },
  {
    "compound": "CC(O)CCCCn1c(=O)c2c(ncn2C)n(C)c1=O (stereo unspecified)",
    "viability decrease (inhibition) / %": 6.4
  }
]

Would you be so kind as to report viability decrease (inhibition) for each listed record?
1. CCC(C(=O)OCCN(CC)CC)c1ccccc1 (stereo unspecified)
2. OC1(c2ccccc2)CCNCC1

Reply:
1. -11.1
2. 11.1

Reference source: PubChem BioAssay
